Values from PubChem BioAssay (NCI)

# Tested on: UO-31 renal
# protocol_summary: NCI tumour cell line growth inhibition, 48 h; in the data active means GI50 below about 0.43 µM; inactive means the rest
*1 amine or outer side, *2 acyl side, *3 side chain or, on linkers, in order; H or OH if unused. Where a SMILES comes first, the peptide text is derived from it. Bridges are numbered along the chain shown (N, C = ends). Roman numbers before positions name the chains, in order. [ ]: non-standard residue; d: D form. Actinocin(9to1) = Cc1c2oc3c(C)ccc(C(=O)[*:1])c3nc-2c(C(=O)[*:2])c(N)c1=O; NMeV = CN[CH](C(=O)O)C(C)C; Sar = CNCC(=O)O
Respond only with the outcome that fits, drawn from Yes (active), No (inactive)

Query: recorded result category for NC(=N\N=C/c1ccc(O)cc1)/C(N)=N\N=C/c1ccc(O)cc1 in this test No

Thanks! And COC(=O)c1cc(-c2ccccc2)[nH]c1N/N=C/c1c(Cl)cccc1Cl ? No

Would you kindly repeat that for Fc1ccc(-c2ncn(C3CCNCC3)c2-c2ccnc(Oc3ccc4c(c3)OCO4)n2)cc1 ? No

Next compound: Cc1c2oc3c(C)ccc(C(=O)NC4C(=O)NC(Cc5ccccc5)C(=O)N5CCCC5C(=O)N(C)CC(=O)N(C)C(C(C)C)C(=O)OC4C)c3nc-2c(C(=O)NC2C(=O)NC(Cc3ccccc3)C(=O)N3CCCC3C(=O)N(C)CC(=O)N(C)C(C(C)C)C(=O)OC2C)c(N)c1=O (stereo unspecified) (I: TFP[Sar][NMeV] / II: TFP[Sar][NMeV]; ester I:1-I:C, II:1-II:C; linker I:N-II:N via Actinocin(9to1); configuration not given here) Yes

Now the compound CCCCCCCCCCCC1=NC(C)(C)CN1C(C)(C)CO No

Please answer likewise for Cc1ccc2nc3ccccc3c(NCc3ccc(Cl)cc3)c2c1 No

###

I'd appreciate it if you could supply TGI values for the items below.
# System: HT29 colon
# protocol_summary: NCI tumour cell line growth inhibition, 48 h

Fill in TGI for each of the 4 compounds listed.
1. C=C1C(=O)O[C@H]2[C@H]1CC/C(COC(=O)CCCCCC(=O)OC/C1=C/CC[C@@]3(C)O[C@H]3[C@H]3OC(=O)C(=C)[C@@H]3CC1)=C\CC[C@@]1(C)O[C@@H]21
2. C#CC(O)(c1nc2ccccc2s1)c1nc2ccccc2s1
3. CC(C)C1CO[C@]2(C)CCC(=O)N12 (some centres undefined)
4. O=C(CCN1CCCC1)Nc1ccc2c(NCc3ccccc3)c3ccccc3nc2c1

["3.84 µM", "77.6 µM", "> 100 µM", "1.7 µM"]

Please look at the items below and tell me TGI for each one, in order.
1. O=C(CCN1CCOCC1)/C(=C/c1ccccc1)c1ccccc1
2. COC(=O)[C@@H]1CS(=O)(=O)C(C(C)C)N1C(C)=O (some centres undefined)
3. CCOC(=O)NC(=O)c1cn(CCN2CCN(C(=O)CNC(=O)CNC(=O)Cn3cc(C(=O)NC(=O)OCC)c(=O)[nH]c3=O)CC2)c(=O)[nH]c1=O
4. CCCn1c2c(c3c(O)cccc31)C(=O)c1ccccc1-2
5. Cc1cc(-n2nnc(C(=O)O)c2-c2ccccc2)c2ccc(Cl)cc2n1

1. 17.6 µM
2. > 100 µM
3. > 100 µM
4. > 100 µM
5. > 100 µM

###

Field: log10 of TGI. Provide a value for each of the compounds that follow.
# System: NCI-H522 lung
# protocol_summary: NCI tumour cell line growth inhibition, 48 h
Could you please treat all values as log10 of TGI in µM?

Some solved entries appear below for comparison.
compound=COc1ccc(-c2c(C)c(C(=O)O)nc(-c3ccc4c(O)c(OC)c5c(c4n3)=NC(C)(C)N=5)c2N)c(O)c1OC measured_endpoint="log10 of TGI" experimental_result=1.39
compound="C[C@@H]1[C@@H](C)C(c2ccccc2)O[Si]1(C(C)(C)C)C(C)(C)C (stereo not given in full)" measured_endpoint="log10 of TGI" experimental_result=1.46
compound=COc1cc(-c2nc3ccccc3s2)ccc1OCCCCOc1cc2c(cc1OC)C(=O)N1CCC[C@H]1C=N2 measured_endpoint="log10 of TGI" experimental_result=0.50
compound=C#CC(O)(c1nc2ccccc2s1)c1nc2ccccc2s1 measured_endpoint="log10 of TGI" experimental_result=1.60

Turning now to a further record.
Returns the measured log10 of TGI for the input compound. Input: CC1C(NNC(N)=O)Oc2cc3c(cc2C1c1ccccc1O)OCO3 (stereo not given) 1.77
